molecular target: Egl nine homolog 1 (Homo sapiens); assay: Inhibition of recombinant human PHD2 (181 to 426 residues) using DLDLEMLAPYIPMDDDFQL peptide as substrate preincubated for 15 mins followed by substrate addition and measured after 15 mins by Q-TOF mass spectrometric analysis
Sequence (Q9GZT9 whole entry, the tested form may be a part): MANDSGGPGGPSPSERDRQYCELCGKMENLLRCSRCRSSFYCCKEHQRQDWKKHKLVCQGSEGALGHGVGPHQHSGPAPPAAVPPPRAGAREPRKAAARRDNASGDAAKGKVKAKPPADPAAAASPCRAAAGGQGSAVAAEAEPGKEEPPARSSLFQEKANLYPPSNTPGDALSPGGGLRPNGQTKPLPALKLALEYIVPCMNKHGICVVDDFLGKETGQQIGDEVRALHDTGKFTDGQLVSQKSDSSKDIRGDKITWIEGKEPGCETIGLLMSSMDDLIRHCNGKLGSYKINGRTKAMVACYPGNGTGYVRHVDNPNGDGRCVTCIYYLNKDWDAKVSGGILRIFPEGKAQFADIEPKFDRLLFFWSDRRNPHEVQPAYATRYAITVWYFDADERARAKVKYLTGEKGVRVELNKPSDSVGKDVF
pIC50: −log10 of the molar value.
// values below are reported pIC50

>  <compound>
O=S(=O)(Nc1cc(C(F)(F)F)ccc1Cl)c1cccc2cccnc12

>  <property.measured>
pIC50

>  <recorded.result>
< 4.00

$$$$

-- ask If you can, please state the reported pIC50 value of O=C(O)CCCN1C(=O)[C@@H]2[C@H](C1=O)[C@H]1C=C[C@@H]2C1 .
-- reply < 4.00

-- ask I am curious: what pIC50 value has been reported for CSCCC(CO)NC(=O)Cn1nc(-n2nc(C)cc2C)ccc1=O (stereo unspecified) ?
-- reply < 4.00
